- MEASUREMENT_DESCRIPTION: Pharmacokinetic study in plasma and brain
- Type: in vivo, male C57BL/6 mice
- ASSAY_SETUP: male, C57BL/6, mouse, brain, po, 1 mg/kg; read-out: Brain t1/2 el
VALUE_KIND: half-life (h)
Give bare numbers, in h.

Incoming: What value of measured half-life is listed for CN(CCCNC(=O)c1ccc(Cl)cc1)Cc1ccccc1 ?
Outgoing: 1.32

----------
- TESTED_SYSTEM: hERG (Homo sapiens)
- Construct: host or cells: CHO (hERG-CHO overexpressing cells)
- Sequence (Q12809 whole entry): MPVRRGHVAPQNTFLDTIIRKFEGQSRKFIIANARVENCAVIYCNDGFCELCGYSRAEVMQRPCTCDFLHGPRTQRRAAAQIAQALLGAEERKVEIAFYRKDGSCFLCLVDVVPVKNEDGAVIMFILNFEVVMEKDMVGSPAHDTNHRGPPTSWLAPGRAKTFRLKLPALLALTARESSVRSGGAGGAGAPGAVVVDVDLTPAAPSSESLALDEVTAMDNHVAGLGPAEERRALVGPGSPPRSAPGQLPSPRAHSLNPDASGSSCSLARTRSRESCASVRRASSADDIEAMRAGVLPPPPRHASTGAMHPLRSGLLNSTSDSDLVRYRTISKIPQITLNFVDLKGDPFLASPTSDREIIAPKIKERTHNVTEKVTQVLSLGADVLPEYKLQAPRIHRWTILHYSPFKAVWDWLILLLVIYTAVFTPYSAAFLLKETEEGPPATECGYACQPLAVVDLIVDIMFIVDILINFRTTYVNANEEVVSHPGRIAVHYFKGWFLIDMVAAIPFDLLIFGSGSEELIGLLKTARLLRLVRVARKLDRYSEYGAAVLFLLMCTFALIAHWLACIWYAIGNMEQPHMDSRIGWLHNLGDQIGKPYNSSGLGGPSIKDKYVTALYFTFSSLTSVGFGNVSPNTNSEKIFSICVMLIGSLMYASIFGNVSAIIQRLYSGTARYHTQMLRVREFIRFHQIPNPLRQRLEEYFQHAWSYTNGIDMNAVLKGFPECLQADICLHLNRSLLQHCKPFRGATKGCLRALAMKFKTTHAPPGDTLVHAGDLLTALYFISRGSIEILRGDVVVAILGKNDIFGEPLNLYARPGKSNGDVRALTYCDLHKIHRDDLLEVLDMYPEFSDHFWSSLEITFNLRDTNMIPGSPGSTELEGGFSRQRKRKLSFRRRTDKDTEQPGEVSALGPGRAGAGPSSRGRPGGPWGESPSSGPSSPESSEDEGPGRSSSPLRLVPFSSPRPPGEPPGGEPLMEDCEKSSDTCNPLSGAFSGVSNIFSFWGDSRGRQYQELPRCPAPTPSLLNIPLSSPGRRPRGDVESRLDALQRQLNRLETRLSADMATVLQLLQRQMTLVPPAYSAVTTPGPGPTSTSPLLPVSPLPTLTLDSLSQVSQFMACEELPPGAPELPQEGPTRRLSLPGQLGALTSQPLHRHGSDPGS
- MEASUREMENT_DESCRIPTION: hERG automated patch-clamp in hERG-CHO cells
- Format: cell-based
- ASSAY_SETUP: read-out: hERG IC50
- Protocol: Cardiotoxicity analysis was performed by Eurofins Cerep (Poitiers, France) according to [73]. hERG-CHO overexpressing cells were used to perform automated patch-clamping. Compound 7i was evaluated at 0.1, 1 and 10 µM. Activities were expressed as % inhibition of tail current.
VALUE_KIND: pIC50
Answers are plain numbers, as −log10 of the molar value.

Incoming: Quick check: pIC50 of O=C(NCCCNCc1ccccc1)c1ccc(Cl)cc1 [compound 7i-deMe] ?
Outgoing: 5.92
